Origin of measurements: patent US6372446B1

test system: Rhizomucor pusillus (AAS 300); test: Screening of fungi for enzyme activity with 4-methylumbelliferone-labelled substrates; format: cell-based; conditions: mineral medium, substrate 10 μM, 25° C., pH 5
measurement-name: Enzyme activity: amount of released 4-methylumbelliferone (µmol)

[
  {
    "molecule": "Cc1cc(=O)oc2cc(O[C@@H]3O[C@H](C)[C@H](O)[C@H](O)[C@H]3O)ccc12 [substrate 11, 4-methylumbelliferyl β-D-fucoside]",
    "unit-spec": "µmol",
    "quantitative-result": 0
  },
  {
    "molecule": "Cc1cc(=O)oc2cc(O[C@@H]3O[C@H](CO)[C@@H](O[C@@H]4O[C@H](CO)[C@H](O)[C@H](O)[C@H]4O)[C@H](O)[C@H]3O)ccc12 [substrate 8, 4-methylumbelliferyl β-D-lactoside]",
    "unit-spec": "µmol",
    "quantitative-result": 0
  },
  {
    "molecule": "Cc1cc(=O)oc2cc(O[C@@H]3OC[C@@H](O)[C@H](O)[C@H]3O)ccc12 [substrate 9, 4-methylumbelliferyl β-D-xyloside]",
    "unit-spec": "µmol",
    "quantitative-result": 0
  },
  {
    "molecule": "Cc1cc(=O)oc2cc(OC3OC(CO)C(O)C(O)C3O)ccc12 [substrate 5, 4-methylumbelliferyl α-D-mannopyranoside]",
    "unit-spec": "µmol",
    "quantitative-result": 0
  },
  {
    "molecule": "Cc1cc(=O)oc2cc(O[C@@H]3O[C@H](CO)[C@@H](O)[C@H](O)[C@@H]3O)ccc12 [substrate 6, 4-methylumbelliferyl β-D-mannopyranoside]",
    "unit-spec": "µmol",
    "quantitative-result": 0
  }
]

###

Catalogue of Enzyme activity: amount of released 4-methylumbelliferone readings, one per entry.
tested on: Trametes versicolor (AGM 24); test: Screening of fungi for enzyme activity with 4-methylumbelliferone-labelled substrates; format: cell-based; details: mineral medium, substrate 10 μM, 25° C., pH 5
State just the number; it will be interpreted in µmol.

[
  {
    "compound": "CC(=O)N[C@H]1[C@H](Oc2ccc3c(C)cc(=O)oc3c2)O[C@H](COS(=O)(=O)O)[C@@H](O)[C@@H]1O [substrate 1]",
    "quantitative-result": 0
  }
]

Okay, now this compound:
API: value(readout= Enzyme activity: amount of released 4-methylumbelliferone, system= Trametes versicolor (AGM 24), query= Cc1cc(=O)oc2cc(OC3OC(CO)C(O)C(O)C3O)ccc12 [substrate 5, 4-methylumbelliferyl α-D-mannopyranoside] )
0

###

tested on: Mucor racemosus (AAS 310); experiment: Screening of fungi for enzyme activity with 4-methylumbelliferone-labelled substrates; assay type: cell-based; settings: vegetable juice medium, substrate 10 μM, 25° C., pH 5
measurement-name: Enzyme activity: amount of released 4-methylumbelliferone during 5 hours of incubation (µmol)

[
  {
    "molecule": "Cc1cc(=O)oc2cc(O[C@@H]3O[C@H](C)[C@H](O)[C@H](O)[C@H]3O)ccc12 [substrate 11, 4-methylumbelliferyl β-D-fucoside]",
    "quantitative-result": 0
  },
  {
    "molecule": "Cc1cc(=O)oc2cc(O[C@@H]3OC[C@@H](O)[C@H](O)[C@H]3O)ccc12 [substrate 9, 4-methylumbelliferyl β-D-xyloside]",
    "quantitative-result": 0
  }
]

###

system: Penicillium solitum (IBT 13771); experiment: Screening of fungi for enzyme activity with 4-methylumbelliferone-labelled substrates; assay type: cell-based; settings: mineral medium, substrate 10 μM, 25° C., pH 5
measurement-name: Enzyme activity: amount of released 4-methylumbelliferone (µmol)

[
  {
    "molecule": "Cc1cc(=O)oc2cc(O[C@@H]3O[C@H](C)[C@H](O)[C@H](O)[C@H]3O)ccc12 [substrate 11, 4-methylumbelliferyl β-D-fucoside]",
    "tgt": "Penicillium solitum (IBT 13771)",
    "unit-spec": "µmol",
    "quantitative-result": 0
  },
  {
    "molecule": "Cc1cc(=O)oc2cc(O[C@@H]3O[C@H](CO)[C@@H](O[C@@H]4O[C@H](CO)[C@H](O)[C@H](O)[C@H]4O)[C@H](O)[C@H]3O)ccc12 [substrate 8, 4-methylumbelliferyl β-D-lactoside]",
    "tgt": "Penicillium solitum (IBT 13771)",
    "unit-spec": "µmol",
    "quantitative-result": 0
  }
]
